# key: entry, value: Time of Full Necrosis
tested on: NIH 3T3 cells; test: UV-activated nanomechanical necrosis, live cell confocal microscopy, NIH 3T3; format: cell-based, mouse; conditions: NIH 3T3, Method B (washed three times), 355 nm UV
Residues, ends and D or L forms follow the SMILES beside them. *: point of attachment. X1 = C[C@@H]1Cc2ccc3ccccc3c2/C1=C1\c2cc(C#CCCN=[N+]=[N-])ccc2Sc2ccc(C#CCCn3cc(C(=O)*)nn3)cc21
Numbers only; they are read as s.

Here are 2 compounds together with their reported answers.
CC(C)[C@H](NC(=O)[C@H](CCCNC(=N)N)NC(=O)[C@@H](NC(=O)[C@H](CC(N)=O)NC(=O)[C@H](CO)NC(=O)c1cn(CCC#Cc2ccc3c(c2)/C(=C2/c4c(ccc5ccccc45)C[C@H]2C)c2cc(C#CCCN=[N+]=[N-])ccc2S3)nn1)[C@@H](C)O)C(=O)N[C@@H](C)C(=O)N1CCC[C@H]1C(=O)O [Compound 10] (X1-SNTRVAP-OH); 600
CC1=CC(C)=[N+]2C1=C(c1ccccc1C(=O)OCc1cn(CCC#Cc3ccc4c(c3)C(=C3c5c(ccc6ccccc56)C[C@H]3C)c3cc(C#CCCn5cc(COC(=O)c6ccccc6C6=C7C(C)=CC(C)=[N+]7[B-](F)(F)n7c(C)cc(C)c76)nn5)ccc3S4)nn1)c1c(C)cc(C)n1[B-]2(F)F (racemic); 570

Entry C[C@@H]1Cc2ccc3ccccc3c2C1=C1c2cc(C#CCCn3cc(CCC(=O)N[C@@H](CC(=O)O)C(=O)NCC(=O)N[C@@H](CCC(=O)O)C(=O)N[C@@H](C)C(N)=O)nn3)ccc2Sc2ccc(C#CCCn3cc(CCC(=O)N[C@@H](CC(=O)O)C(=O)NCC(=O)N[C@@H](CCC(=O)O)C(=O)N[C@@H](C)C(N)=O)nn3)cc21 under NIH 3T3 cells had Time of Full Necrosis of 390

Measured Time of Full Necrosis for this entry C[C@H](NC(=O)[C@H](CCC(=O)O)NC(=O)CNC(=O)[C@H](CC(=O)O)NC(=O)CCc1cn(CCC#Cc2ccc3c(c2)/C(=C2/c4c(ccc5ccccc45)C[C@H]2C)c2cc(C#CCCN=[N+]=[N-])ccc2S3)nn1)C(N)=O on NIH 3T3 cells: 360

* * *

Test system: NIH 3T3 cells
Test: UV-activated nanomechanical necrosis, live cell confocal microscopy, NIH 3T3
Format: cell-based, mouse
Details: NIH 3T3, Method B (washed three times), 355 nm UV
Description: Following the synthetic bilipid vesicle experiments, nanomechanical action upon live cells was studied using confocal microscopy aided by a super-resolution technique called Phase Modulation Nanoscopy. Applicants used two experimental methods. […] Steady state fluorescence images were recorded using a PhMoNa enhanced Leica SP5 II LSCM equipped with a HCX PL APO 63×/1.40 NA LambdaBlue Oil immersion objective. […] All experiments used cell-line-determined culture medium containing 0.1% DMSO. […]
Residues, ends and D or L forms follow the SMILES beside them. *: point of attachment. X1 = C[C@@H]1Cc2ccc3ccccc3c2/C1=C1\c2cc(C#CCCN=[N+]=[N-])ccc2Sc2ccc(C#CCCn3cc(C(=O)*)nn3)cc21
Listed here: items and their measured Time of Initial Necrosis.

For this molecule ( CC(C)[C@H](NC(=O)[C@H](CCCNC(=N)N)NC(=O)[C@@H](NC(=O)[C@H](CC(N)=O)NC(=O)[C@H](CO)NC(=O)c1cn(CCC#Cc2ccc3c(c2)/C(=C2/c4c(ccc5ccccc45)C[C@H]2C)c2cc(C#CCCN=[N+]=[N-])ccc2S3)nn1)[C@@H](C)O)C(=O)N[C@@H](C)C(=O)N1CCC[C@H]1C(=O)O [Compound 10] (X1-SNTRVAP-OH) ), measured Time of Initial Necrosis is 300 s

The recorded Time of Initial Necrosis for entry C[C@@H]1Cc2ccc3ccccc3c2C1=C1c2cc(C#CCCn3cc(CCC(=O)N[C@@H](CC(=O)O)C(=O)NCC(=O)N[C@@H](CCC(=O)O)C(=O)N[C@@H](C)C(N)=O)nn3)ccc2Sc2ccc(C#CCCn3cc(CCC(=O)N[C@@H](CC(=O)O)C(=O)NCC(=O)N[C@@H](CCC(=O)O)C(=O)N[C@@H](C)C(N)=O)nn3)cc21 equals 165 s

Time of Initial Necrosis in this record for C[C@H](NC(=O)[C@H](CCC(=O)O)NC(=O)CNC(=O)[C@H](CC(=O)O)NC(=O)CCc1cn(CCC#Cc2ccc3c(c2)/C(=C2/c4c(ccc5ccccc45)C[C@H]2C)c2cc(C#CCCN=[N+]=[N-])ccc2S3)nn1)C(N)=O : 150 s

Note to self: Time of Initial Necrosis recorded for CC1=CC(C)=[N+]2C1=C(c1ccccc1C(=O)OCc1cn(CCC#Cc3ccc4c(c3)C(=C3c5c(ccc6ccccc56)C[C@H]3C)c3cc(C#CCCn5cc(COC(=O)c6ccccc6C6=C7C(C)=CC(C)=[N+]7[B-](F)(F)n7c(C)cc(C)c76)nn5)ccc3S4)nn1)c1c(C)cc(C)n1[B-]2(F)F (racemic) was 300 s
